Recorded values, source patent US20150231240A1.

Assign Median fold change relative to IgG control to each entry below.
Biological target: T1, cynomolgus monkey C16orf54 (cynomolgus monkey (Macaca fascicularis), UniProt Q6UWD8 1-224 (human entry))
T1 construct: also called cyno C16orf54; cyno-C16orf54
T1 chain: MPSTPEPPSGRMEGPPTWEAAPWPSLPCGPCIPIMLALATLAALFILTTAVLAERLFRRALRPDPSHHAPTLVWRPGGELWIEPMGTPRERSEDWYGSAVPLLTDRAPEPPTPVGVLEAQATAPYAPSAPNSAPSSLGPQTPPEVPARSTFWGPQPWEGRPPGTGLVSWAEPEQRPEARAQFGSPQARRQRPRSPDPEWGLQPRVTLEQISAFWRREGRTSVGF
Experiment: flow cytometry, 10 ug/ml antibody, F279-cyno-C16orf54 cells
Give just the number in fold; leave the unit off.

Need Median fold change relative to IgG control of R29-8-75B (antibody, V domains shown, Murine monoclonal antibody from a hybridoma) VH: DVQLVESGGGLVQPGGSRKLSCAASGFTFSRFGMHWVRQAPEKGLEWVAYISSGSSTIYYADTVKGRFTISRDNPKNTLFLQMTSLRSEDTAMYYCARVDYDVALAYWGQGTLVTVSA VL: GVLMTQTPLSLPVSLGDQASISCRSSQSIVHRNGNTYLEWYLQKPGQSPKLLIYKVSNRFSGVPDRFSGSGSGTDFTLKISRVEAEDLGVYYCFQGSQWTFGGGTKLEIK , thanks. 7.8

What about R29-8-12A (antibody, V domains shown, Murine monoclonal antibody from a hybridoma) VH: EVKLVESGGGLVKPGGSLKFSCAASGFTFSSYAVSWVRQTPEKRLEWVASITSGGRTYYPDSVKGRFTISRDNARSMLYLHMSSLRSEDTAMYYCTRGWDENDLWGQGTTLTVSS VL: DVVMTQTPLSLPVSLGDQASISCRSSQSLVYSNGNTYLHWYLQKPGQSPQLLIYKVSNRFSGVPDRFSGSGSGTDFTLKISRVEAEDLGVYFCSQTTHVPWTFGGGTKLEIK ? 3.6

Try R29-8-120B (antibody, V domains shown, Murine monoclonal antibody from a hybridoma) VH: KVNLVESGGGLVKAGGSLKLSCAASGFTFSIYAMSWFRQTPEKRLEWVASITGGGTNFYPDSVRGRFTISRDNVRNILYLQMSSLRSEDTAMYYCARGWDENDYWGQGTTLTVSS VL: DVVMTQTPLSLPVSLGDQASISCRSSQSLVYSNGNTYLHWYLQKPGQSPKLLIYKVSNRFSGVPDRFSGSGSGTDFTLKISRVEAEDLGVYFCSQSTHVPWTFGGGTKLEIK next. 5.2

Please answer likewise for R29-7A-53A (antibody, V domains shown, Murine monoclonal antibody from a hybridoma; also called R29-7-53A) VH: QVQLKESGPGLVAPSQSLSITCTVSGFSLTDYAISWIRQPPGKGLEWLGVIWGGGRTYSNSALKSRLSISKDNSRSQIFLKMNSLQTDDTAMYYCAKHEEVSRFAYWGQGTLVTVSV VL: DVVLTQTPLSLPVSLGDQASISCRSSQSLVYSNGNSYLHWYLQKPGQSPKLLIYKVSNRFSGVPDRFSGSGSGTDFTLKITRVEAEDLGVYFCSQSTHIPLTFGAGTKLELK 1.2

Do the same for R29-8-57B (antibody, V domains shown, Murine monoclonal antibody from a hybridoma) VH: DVQLQESGPGLVKPSQSLSLTCTVTGYSITSDYAWNWIRQFPGNKLEWMGYINYSGSTRYNPSLKSRISITRDTSKNHFFLQLNSVTPEDTATYHCARERYDGVYYGMDYWGQGTSVTVSS VL: DIVMSQSPSSLAVSVGEKVTMSCKSSQSLLYSSNQKNYLAWYQQKPGQSPKLLIYWASTRESGVPDRFTGSGSGTDFTLTISSVKTEDLAVYYCQQYYSYRTFGGGTKLEIK please 62

And R29-8-136C (antibody, V domains shown, Murine monoclonal antibody from a hybridoma) VH: DVQLQESGPGLVKPSQSLSLTCTVTGYSITSDYAWNWIRQFPGNKLEWMGYINYSGSSRYNPSLKSRISITRDTSKNHFFLQLNSVTPEDTATYHCARERYDGVYYGMDYWGQGTSVTVSS VL: DIVMSQSPSSLAVSVGEKVTMSCKSSQSLLYSSNQKNYLAWYQQKPGQSPKLLIYWASTRESGVPDRFTGSGSGTDFTLTISSVKTEDLAVYYCQQYYSYRTFGGGTKLEIK ? 61.6

Same question for R29-7-1C (antibody, V domains shown, Murine monoclonal IgG2a from a hybridoma) VH: DVQLQESGPGLVKPSQSLSLTCTVTGYSITSDYAWNWIRQFPGNKLEWMGYISYSGSIRYNPSLKSRISITRDTSKNQFFLQLNSVTTEDTATYYCAREKYDNYYYAMDYWGQGTSVTVSS VL: DIVMSQSPSSLAVSVGEKVTLSCKSSQNLLYSTNQKNYLAWYQQKPGQSPKLLIYWASTRESGVPDRFTGSGSGTDFTLTISSVKAEDLAVYYCQQYYSYRTFGGGTKLEIK please. 53.7

Subsequent entry: R29-8-9B (antibody, V domains shown, Murine monoclonal antibody from a hybridoma) VH: EVKLVESGGGVVKPGGSLKLSCAASGFTFSSYAMSWFRQTSEMSLEWVASITGGGGTYYPDSVKGRFTISRDTVRNILYLQMRSLRSGDTAIYYCARGWDENDYWGQGTTLTVSS VL: DVVMTQIPLSLPVSLGDQASISCRSSQSLVFSNGNTYLHWYFQKPGQSPKLLIYKVSNRFSGVPDRFSGSGSGTDFILRISRVEAEDLGVYFCSQSTHVPWTFGGGTKLEIK 2

How about this binder: R29-7A-54C (antibody, V domains shown, Murine monoclonal antibody from a hybridoma; also called R29-7-54C) VH: QVQLKESGPGLVAPSQSLSITCTVSGFSLTDYAISWIRQPPGKGLEWLGVIWGGGRTYSNSALKSRLSISKDNSRSQIFLKMNSLQTDDTAMYYCAKHEEVSRFAYWGQGTLVTVSV VL: DVVLTQTPLSLPVSLGDQASISCRSSQSLVYSNGNSYLHWYLQKPGQSPKLLIYKVSNRFSGVPDRFSGSGSGTDFTLKITRVEAEDLGVYFCSQSTHIPLTFGAGTKLELK 1

Here is the next binder: R29-8-19B (antibody, V domains shown, Murine monoclonal antibody from a hybridoma) VH: EVKLVESGGGLVKPGGSLKFSCAASGFTFSSYAVSWVRQTPEKRLEWVASITSGGRTYYPDSVKGRFTISRDNARSMLYLHMSSLRSEDTAMYYCTRGWDENDLWGQGTTLTVSS VL: DVVMTQTPLSLPVSLGDQASISCRSSQSLVYSNGNTYLHWYLQKPGQSPQLLIYKVSNRFSGVPDRFSGSGSGTDFTLKISRVEAEDLGVYFCSQTTHVPWTFGGGTKLEIK 4.5
